From: paper PMC5531447

molecular target: hD2 receptor (Homo sapiens, UniProt P14416); test: In vitro radioligand binding assay, [3H]spiperone, HEK293-hD2 cells; details: read-out: IC50 (single binding site), inhibition of [3H]spiperone binding; HEK293-hD2 cells
Sequence (P14416 whole entry): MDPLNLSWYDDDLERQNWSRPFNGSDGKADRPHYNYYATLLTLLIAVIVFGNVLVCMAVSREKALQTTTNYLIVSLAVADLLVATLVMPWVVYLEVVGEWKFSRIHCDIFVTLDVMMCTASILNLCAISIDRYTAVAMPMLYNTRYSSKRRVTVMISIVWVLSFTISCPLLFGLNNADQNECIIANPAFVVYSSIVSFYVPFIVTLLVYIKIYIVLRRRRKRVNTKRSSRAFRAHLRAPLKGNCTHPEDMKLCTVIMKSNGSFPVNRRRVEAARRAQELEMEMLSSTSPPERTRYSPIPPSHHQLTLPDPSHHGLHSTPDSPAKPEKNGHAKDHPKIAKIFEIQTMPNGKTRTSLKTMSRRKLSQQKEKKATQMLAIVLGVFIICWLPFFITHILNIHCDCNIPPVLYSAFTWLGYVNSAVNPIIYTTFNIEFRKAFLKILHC
Quantity kind: IC50

**Query** Which IC50 is reported for this compound? Cc1ccc(Cl)cc1N1CCN(CCCCNC(=O)c2ccc3oc(=O)[nH]c3c2)CC1 [YQA14]
**Result** ~1000 nM

###

target: hD1 receptor (Homo sapiens, UniProt P21728); assay: In vitro radioligand binding assay, [3H]SCH23390, HEK293 cells expressing hD1; settings: read-out: Ki at D1; HEK293, [3H]SCH23390
Sequence (P21728 whole entry): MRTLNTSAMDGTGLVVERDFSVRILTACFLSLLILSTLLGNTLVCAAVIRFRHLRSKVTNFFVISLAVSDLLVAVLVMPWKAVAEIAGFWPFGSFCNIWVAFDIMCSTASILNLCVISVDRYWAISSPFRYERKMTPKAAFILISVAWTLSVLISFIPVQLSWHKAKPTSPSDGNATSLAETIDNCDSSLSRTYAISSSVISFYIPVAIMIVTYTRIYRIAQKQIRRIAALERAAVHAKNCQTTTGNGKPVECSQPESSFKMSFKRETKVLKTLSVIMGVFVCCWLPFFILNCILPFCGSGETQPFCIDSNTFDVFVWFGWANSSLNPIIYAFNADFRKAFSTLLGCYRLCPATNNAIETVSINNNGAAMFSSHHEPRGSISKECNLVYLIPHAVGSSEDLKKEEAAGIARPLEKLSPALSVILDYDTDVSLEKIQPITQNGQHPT
Quantity kind: Ki

**Query** Which Ki is reported for this compound? `Cc1ccc(Cl)cc1N1CCN(CCCCNC(=O)c2ccc3oc(=O)[nH]c3c2)CC1`
**Result** > 100 µM
